TESTED SYSTEM: SEX4 (Arabidopsis thaliana, UniProt Q9FEB5)
Construct: gift from Dr. Gentry's group, University of Kentucky College of Medicine
Sequence (Q9FEB5 90-379 limits assumed): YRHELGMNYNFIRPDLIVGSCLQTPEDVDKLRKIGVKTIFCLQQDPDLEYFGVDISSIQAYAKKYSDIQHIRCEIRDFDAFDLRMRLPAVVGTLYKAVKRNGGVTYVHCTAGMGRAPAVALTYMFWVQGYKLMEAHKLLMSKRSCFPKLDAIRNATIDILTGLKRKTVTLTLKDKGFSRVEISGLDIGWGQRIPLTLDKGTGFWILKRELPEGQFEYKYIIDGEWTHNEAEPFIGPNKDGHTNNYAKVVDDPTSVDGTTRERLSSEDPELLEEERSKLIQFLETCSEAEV
ASSAY COMMENT: Phosphatase assay against amylopectin, SEX4
Assay type: biochemical
COND: 45 μg amylopectin, inhibitor 0–0.2 mM; average ± standard error of three measurements; read-out: IC50, amylopectin assay, SEX4
pIC50: −log10 of the molar value.

COMPOUND	pIC50
O=C(O)c1cc(O)c2c(c1)[C@@H]([C@@H]1c3cc(C(=O)O)cc(O)c3C(=O)c3c(OC4OC(CO)C(O)C(O)C4O)cccc31)c1cccc(OC3OC(CO)C(O)C(O)C3O)c1C2=O (some centres unmarked) [Compound G11, Sennoside]	5.01
CC(C)=CCc1c(-c2ccc(O)cc2O)oc2c(C3C=C(C)CC(C(=O)c4ccc(O)cc4O)C3c3ccc(O)cc3O)c(O)cc(O)c2c1=O (centres unmarked)	4.78
CCCc1c(O)nc2[nH]c(=O)sc2c1C	4.24
Cc1c(O)nc2[nH]c(=O)sc2c1C	4.88
CCCCCC/C=C\CCCCCCCc1cccc(O)c1C(=O)O	4.68
